Experiment: Human HepG2 cell viability assay in 384 well format
Format: toxicity, cell-based
Set-up: dose 125 nL, time 70.5 hour; concentration not given beside the values
Conditions: HepG2 cells, read-out: Inhibition
Consider the cut-off -10%. If the recorded cytotoxicity at 70.5 h is strictly smaller, the label is condition met; if not, the label is condition not met.

Previously resolved entries follow.
COMPOUND: Cc1cccc(-c2nccnc2C2CCCN(C)C2)c1C (stereo unspecified)
LABEL_VALUE: condition not met

COMPOUND: CC1CCN(C(=O)c2cccc(CN3CCOCC3)c2)CC1
LABEL_VALUE: condition not met

COMPOUND: Cc1noc(CCCC(=O)N2CCCC2c2ccsc2)n1 (stereo unspecified)
LABEL_VALUE: condition not met

Please examine the following record next.
Strictly below -10%: is that where cytotoxicity at 70.5 h of CN(C)[C@@H]1CCN(c2ncccn2)[C@H]1Cc1cccnc1 sits? condition not met

====

Catalogue of cytotoxicity at 70.5 h values
Test: Human HepG2 cell viability assay in 384 well format
Format: toxicity, cell-based
Set-up: dose 125 nL, time 70.5 hour; concentration not given beside the values
Details: HepG2 cells, read-out: Inhibition
Lab book: enter the figure in %, no units written.

Would you please look over these solved cases?
COMPOUND: CC(C)NC(=O)Cc1cnc(-n2cccc2)s1
READOUT_UNITS: %
cytotoxicity at 70.5 h: -24.2

COMPOUND: CCOC[C@]12COC[C@H]1CN(Cc1ccc3c(c1)OCO3)C2
READOUT_UNITS: %
cytotoxicity at 70.5 h: -6.35

COMPOUND: Cc1cncc(C(=O)N[C@@H]2CC[C@@H](N3CCOCC3)[C@@H]2O)c1
READOUT_UNITS: %
cytotoxicity at 70.5 h: -8.5

COMPOUND: CS(=O)(=O)NCC(=O)NC1CCCN(c2ccccn2)C1 (stereo not drawn)
READOUT_UNITS: %
cytotoxicity at 70.5 h: -9.78

COMPOUND: Cn1ncc2c1C(COCC1CC1)CN(Cc1ccoc1)C2 (stereo not drawn)
READOUT_UNITS: %
cytotoxicity at 70.5 h: -6.88

What the record says about Cc1nc(Cn2c3c(ccc2=O)CCN(CC2CC2)CC3)cs1 : cytotoxicity at 70.5 h is -2.72

Measured cytotoxicity at 70.5 h of COC(=O)c1cc(OCC2CCC2)cc(C(=O)N[C@@H](C)CO)c1 : -22.2

// cytotoxicity at 70.5 h value for Cc1ccnc(NCCCN2CCc3ccccc32)n1 : -2.9

Per the record, COCCOCCSc1nnc(Cc2ccccc2F)o1 has cytotoxicity at 70.5 h of -4.09

Kindly note the recorded cytotoxicity at 70.5 h for COCC1CCN(S(=O)(=O)c2ccc(C(=O)NCC(F)F)cc2)C1 (stereo not drawn) , which is 9.26

Form: compound = CCNc1cc2c(nn1)CCN(C(=O)CCc1c(C)noc1C)C2 ; cytotoxicity at 70.5 h = 18.9

Record c1ccc(Cc2noc(-c3ccc(NCC4CCCCO4)nc3)n2)cc1 (stereo not drawn) , field cytotoxicity at 70.5 h: 26.1

Briefly, cytotoxicity at 70.5 h measured for Cc1nc(CNCC2CN(C3CC3)CCO2)cs1 (stereo not drawn) : 23.8

====

Assay: Human HepG2 cell viability assay in 384 well format
Assay type: toxicity, cell-based
Design: dose 125 nL, time 70.5 hour; concentration not given beside the values
Conditions: HepG2 cells, read-out: Inhibition
PROPERTY_MEASURED: cytotoxicity at 70.5 h (%)
Just the number please, in %, no unit attached.

Below: 2 molecules and their reported cytotoxicity at 70.5 h.
MOLECULE: Cc1noc(C)c1CN1CC[C@@H]2O[C@@H](COCC3CC3)CC[C@@H]21
READOUT_UNITS: %
TEST_RESULT: -4.44
--
MOLECULE: CC1CCCCN1CCNC(=O)c1ccccc1N1CCOCC1 (centres undefined)
READOUT_UNITS: %
TEST_RESULT: 19

For this molecule ( Cc1nn(C)c(N2CCOCC2)c1CNCc1ccc2c(c1)OCO2 ), measured cytotoxicity at 70.5 h is -5.61

Reported cytotoxicity at 70.5 h ( CSc1nc(O)c(Cc2ccccc2)c(=O)n1-c1ccccc1 ) = -6.85

Recorded result, Cc1nn(CCO)c(C)c1CNC1CCC(C)(C)c2ccccc21 (centres undefined) , cytotoxicity at 70.5 h: -5.72

cytotoxicity at 70.5 h reading for CCOCc1nn(C)c2c1CN(C(=O)c1ccno1)CC2 : -4.99

Briefly, cytotoxicity at 70.5 h measured for COc1ccc(CN(Cc2cn(C)nc2C)CC2CCCO2)c(OC)c1 (centres undefined) : -2.41

Note to self: cytotoxicity at 70.5 h recorded for COC(=O)N1CCc2ccccc2C1C(=O)NCc1ccco1 (centres undefined) was -10.1

Lab book: cytotoxicity at 70.5 h of CC[C@H]1COCCN1C(=O)c1cnc(-c2ccccc2)nc1C noted as -5.37

Reported cytotoxicity at 70.5 h for CN(C)CCCn1ccc(-c2cccc(-c3cncnc3)c2)n1 was -9.25

The reported cytotoxicity at 70.5 h of the molecule Clc1cccnc1OC1CCNCC1 was 22.1
